Attribute: Plant response rating, Blackgrass
- Test system: blackgrass (Alopecurus myosuroides)
- test.protocol: Test B pre-/postemergence plant response
- Format: in vivo
- test.parameters: Postemergence, 125 g ai/ha; scale 0 to 100 (0 no effect, 100 complete control)
- Description: […] Treated plants and controls were maintained in a greenhouse for 13 to 15 days, after which time all treated plants were visually evaluated and compared to controls. […]
assay.endpoint: Plant response rating, Blackgrass

molecule=CCc1cccc(-n2c(-c3ccccc3)ncc(C(=O)C3=C(O)CCCC3=O)c2=O)c1 target="blackgrass (Alopecurus myosuroides)" recorded_result=30
molecule=O=C1CCCC(O)=C1C(=O)c1cnc(-c2ccccc2)n(C2CCOCC2)c1=O target="blackgrass (Alopecurus myosuroides)" recorded_result=5
molecule=Cc1ccc(-n2c(-c3cc(F)cc(F)c3)ncc(C(=O)C3=C(O)CCCC3=O)c2=O)cc1 target="blackgrass (Alopecurus myosuroides)" recorded_result=55
molecule="O=C1CCCC(O)=C1C(=O)c1cnc(-c2cccs2)n(CC2CCCO2)c1=O (stereo not shown)" target="blackgrass (Alopecurus myosuroides)" recorded_result=40

* * *

- Test system: ducksalad (Heteranthera limosa)
- test.protocol: Test B flooded paddy test
- Assay type: in vivo
- test.parameters: 250 g ai/ha; flooded paddy test; visual rating on 0 to 100 scale (0 no effect, 100 complete control) after 13 to 15 days
- Description: Plant species in the flooded paddy test consisted of rice (Oryza sativa), umbrella sedge (Cyperus difformis), ducksalad (Heteranthera limosa) and barnyardgrass (Echinochloa crus-galli) grown to the 2-leaf stage for testing. […] Treated plants and controls were maintained in a greenhouse for 13 to 15 days, after which time all treated plants were visually evaluated and compared to controls. […]
assay.endpoint: Plant response rating, Flood, Ducksalad

compound="CCCn1c(-c2cccc(OC)c2)ncc(C(=O)C2=C(O)CCCC2=O)c1=O [Compound 100]" recorded_result=85
compound="COCCn1c(-c2ccco2)ncc(C(=O)C2=C(O)CCCC2=O)c1=O [Compound 111]" recorded_result=75
compound="O=C1CCCC(O)=C1C(=O)c1cnc(-c2cccc(Br)c2)n(-c2ccccc2)c1=O [Compound 69]" recorded_result=20
compound="Cc1ccc(-n2c(-c3cc(F)cc(F)c3)ncc(C(=O)C3=C(O)CCCC3=O)c2=O)cc1 [Compound 162]" recorded_result=100

* * *

- System: morningglory (Ipomoea coccinea)
- test.protocol: Test B pre-/postemergence plant response
- Assay type: in vivo
- test.parameters: Preemergence, 31 g ai/ha; scale 0 to 100 (0 no effect, 100 complete control)
Measured Plant response rating, Morningglory accompanies every entry in the list below.
assay.endpoint: Plant response rating, Morningglory

query_smiles=CCCc1ncc(C(=O)C2=C(O)CCCC2=O)c(=O)n1-c1ccccc1 assay_endpoint="Plant response rating, Morningglory" recorded_result=0
query_smiles=Cc1cccc(-n2c(-c3cccc(Cl)c3)ncc(C(=O)C3=C(O)CCCC3=O)c2=O)c1 assay_endpoint="Plant response rating, Morningglory" recorded_result=0
query_smiles=CCCc1ncc(C(=O)C2=C(O)CCCC2=O)c(=O)n1CCC assay_endpoint="Plant response rating, Morningglory" recorded_result=0
query_smiles=O=C1CCCC(O)=C1C(=O)c1cnc(-c2ccccc2)n(-c2ccc(F)cc2)c1=O assay_endpoint="Plant response rating, Morningglory" recorded_result=100

* * *

- Tested on: blackgrass (Alopecurus myosuroides)
- test.protocol: Test B pre-/postemergence plant response
- Assay type: in vivo
- test.parameters: Postemergence, 31 g ai/ha; scale 0 to 100 (0 no effect, 100 complete control)
Here, each record is paired with measured Plant response rating, Blackgrass data.
assay.endpoint: Plant response rating, Blackgrass

query_smiles=Cc1ccc(C)c(-n2c(-c3ccccc3)ncc(C(=O)C3=C(O)CCCC3=O)c2=O)c1 recorded_result=10
query_smiles=Cc1cccc(-n2c(-c3cccc(Cl)c3)ncc(C(=O)C3=C(O)CCCC3=O)c2=O)c1 recorded_result=5
query_smiles=O=C1CCCC(O)=C1C(=O)c1cnc(-c2cccc(Cl)c2)n(-c2ccccc2)c1=O recorded_result=0
query_smiles=O=C1CCCC([O-])=C1C(=O)c1cnc(-c2ccccc2)n(-c2ccccc2)c1=O.[K+] recorded_result=0
